- Tested on: Staphylococcus aureus 447
- RUN_DESCRIPTION: broth micro-dilution MIC
- Format: cell-based
Provide the recorded MIC for the entries that follow.
Express it in µg/mL; write the number only.

Ask | Any idea what MIC was measured for CNC(CC(C)C)C(=O)NC1C(=O)NC(CC(N)=O)C(=O)NC2C(=O)NC3C(=O)NC(C(=O)NC(C(=O)O)c4cc(O)cc(O)c4-c4cc3ccc4O)C(OC3CC(C)(N)C(O)C(C)O3)c3ccc(c(Cl)c3)Oc3cc2cc(c3OC2OC(CO)C(O)C(O)C2OC2CC(C)(NCCCCCCCCOc3ccc(OC)cc3)C(O)C(C)O2)Oc2ccc(cc2Cl)C1O (stereo not drawn) ?
Reply | 0.5

Ask | Would you mind telling me what MIC value was observed for CNC(CC(C)C)C(=O)NC1C(=O)NC(CC(N)=O)C(=O)NC2C(=O)NC3C(=O)NC(C(=O)NC(C(=O)O)c4cc(O)cc(O)c4-c4cc3ccc4O)C(OC3CC(C)(N)C(O)C(C)O3)c3ccc(c(Cl)c3)Oc3cc2cc(c3OC2OC(CO)C(O)C(O)C2OC2CC(C)(NCc3c4ccccc4cc4ccccc34)C(O)C(C)O2)Oc2ccc(cc2Cl)C1O (stereo not drawn) ?
Reply | 8

* * *

- Tested on: Staphylococcus aureus 447
- RUN_DESCRIPTION: broth micro-dilution MIC
- Type: cell-based
OBSERVABLE: MIC (µg/mL)
The response must be a number in µg/mL with no trailing unit.

Ask | Request the reported MIC associated with CNC(CC(C)C)C(=O)NC1C(=O)NC(CC(N)=O)C(=O)NC2C(=O)NC3C(=O)NC(C(=O)NC(C(=O)O)c4cc(O)cc(O)c4-c4cc3ccc4O)C(OC3CC(C)(N)C(O)C(C)O3)c3ccc(c(Cl)c3)Oc3cc2cc(c3OC2OC(CO)C(O)C(O)C2OC2CC(C)(NCc3ccc(OC(F)F)cc3)C(O)C(C)O2)Oc2ccc(cc2Cl)C1O (centres unmarked) [Compound 72]
Reply | 1

Ask | Field request: MIC | item: CNC(CC(C)C)C(=O)NC1C(=O)NC(CC(N)=O)C(=O)NC2C(=O)NC3C(=O)NC(C(=O)NC(C(=O)O)c4cc(O)cc(O)c4-c4cc3ccc4O)C(OC3CC(C)(N)C(O)C(C)O3)c3ccc(c(Cl)c3)Oc3cc2cc(c3OC2OC(CO)C(O)C(O)C2OC2CC(C)(NCc3ccc(S(=O)(=O)c4ccc(Cl)cc4)cc3)C(O)C(C)O2)Oc2ccc(cc2Cl)C1O (centres unmarked) [Compound 148]
Reply | 1

* * *

Exercise: for every item that follows, state its recorded MIC.
- Tested on: Lactobacillus confusus
- RUN_DESCRIPTION: agar dilution MIC, lactic acid bacteria
- Format: cell-based
- CONDITION_LABEL: Lactobacillus confusus, brain-heart infusion agar
Number only, in µg/mL; omit the unit.

Ask | // map CNC(CC(C)C)C(=O)NC1C(=O)NC(CC(N)=O)C(=O)NC2C(=O)NC3C(=O)NC(C(=O)NC(C(=O)O)c4cc(O)cc(O)c4-c4cc3ccc4O)C(OC3CC(C)(N)C(O)C(C)O3)c3ccc(c(Cl)c3)Oc3cc2cc(c3OC2OC(CO)C(O)C(O)C2OC2CC(C)(NCc3ccc(OC(F)(F)F)cc3)C(O)C(C)O2)Oc2ccc(cc2Cl)C1O (stereo not shown) to recorded MIC (system: Lactobacillus confusus)
Reply | 16

Ask | Quick check: MIC on Lactobacillus confusus, item CNC(CC(C)C)C(=O)NC1C(=O)NC(CC(N)=O)C(=O)NC2C(=O)NC3C(=O)NC(C(=O)NC(C(=O)O)c4cc(O)cc(O)c4-c4cc3ccc4O)C(OC3CC(C)(N)C(O)C(C)O3)c3ccc(c(Cl)c3)Oc3cc2cc(c3OC2OC(CO)C(O)C(O)C2OC2CC(C)(NCc3ccc(SC)cc3)C(O)C(C)O2)Oc2ccc(cc2Cl)C1O (stereo not shown) ?
Reply | 64

Ask | // fetch Lactobacillus confusus MIC for CNC(CC(C)C)C(=O)NC1C(=O)NC(CC(N)=O)C(=O)NC2C(=O)NC3C(=O)NC(C(=O)NC(C(=O)O)c4cc(O)cc(O)c4-c4cc3ccc4O)C(OC3CC(C)(N)C(O)C(C)O3)c3ccc(c(Cl)c3)Oc3cc2cc(c3OC2OC(CO)C(O)C(O)C2OC2CC(C)(NCc3ccc4c(c3)Cc3ccccc3-4)C(O)C(C)O2)Oc2ccc(cc2Cl)C1O (stereo not shown)
Reply | 16
